Data provenance: patent US9204653B2

Below, each of the compounds is paired with its reported pest or weed control at 25 ppm value.
Test system: Mycosphaerella graminicola; Anamorph: Septoria tritici; Bayer Code SEPTTR
Assay: Leaf blotch of wheat, foliar fungicide treatment, one day protectant (1DP) or three day curative (3DC)
Type: in vivo, Septoria tritici on wheat plants (variety Yuma)
Conditions: Zymoseptoria tritici, 24 h, one day protectant (1DP), 25 ppm, rating of percent disease control, read-out: SETTTR 1DP 25 ppm

q: Field request: pest or weed control at 25 ppm | item: CN(/C=N/c1nc(OCc2ccc(F)cc2)ncc1F)Cc1ccccc1 [Compound 292]
a: 76 to 100%

q: Field request: pest or weed control at 25 ppm | item: O=C(NNc1nc(OCc2ccccc2)ncc1F)c1ccccc1 [Compound 293]
a: 0 to 25%

q: Field request: pest or weed control at 25 ppm | item: O=C1OC(Nc2nc(OCc3ccc(F)cc3)ncc2F)c2ccccc21 (centres unmarked) [Compound 226]
a: 76 to 100%

q: Field request: pest or weed control at 25 ppm | item: Cn1nc(Oc2ncc(F)c(N)n2)cc1C(F)(F)F [Compound 764]
a: 0 to 25%

q: Field request: pest or weed control at 25 ppm | item: COCCCOc1ncc(F)c(N)n1 [Compound 315]
a: 51 to 75%
